Attribution: PubChem BioAssay (NCATS)

- Tested on: HEK293
- runDescription: Cytotoxic Profiling of Annotated Libraries Using Quantitative High-Throughput Screening (AID 1296008); note: nearly all actives have a fitted effect of over 60% in size; note: potency is the fitted concentration of half-maximal effect
- statedConditions: Five cell lines viability, CellTiter-Glo ATP luminescence, 48-72 h
Records with an inconclusive call do not appear. Active and inactive are the calls of the source. Calls come from the whole dose curve; as a rule, active = well fitted inhibition curve with a large enough effect; inconclusive = small, poorly fitted or top-dose-only effect; inactive = flat fitted curve, though single readings scatter.
experimentalEndpoint: Potency

As a guide, the following entries are already answered.
1) N#Cc1cc(NC(=O)Nc2nnc(-c3ccncc3)s2)ccc1-c1cn[nH]c1 : inactive
2) O=c1[nH]c(=O)n([C@H]2C[C@@H](O)[C@@H](CO)O2)cc1F : 0.0526 µM (active)
3) CC(=O)N[C@@H]1[C@H](O[C@@H]2c3ccc(c(Cl)c3)Oc3cc4cc(c3O[C@H]3O[C@H](CO)[C@@H](O)[C@H](O)[C@H]3NC(=O)CCCCCCCC(C)C)Oc3ccc(cc3Cl)C[C@H]3NC(=O)[C@H](N)c5ccc(O)c(c5)Oc5cc(O)cc(c5)[C@H](NC3=O)C(=O)N[C@H]4C(=O)N[C@H]3C(=O)N[C@@H]2C(=O)N[C@@H](C(=O)O)c2cc(O)cc(O[C@H]4O[C@H](CO)[C@@H](O)[C@H](O)[C@H]4O)c2-c2cc3ccc2O)O[C@H](CO)[C@@H](O)[C@@H]1O : inactive
4) Cn1cc(-c2cnn3c(N)c(Br)c([C@H]4CCCNC4)nc23)cn1 : 0.418 µM (active)
5) Cc1cncc2cccc(S(=O)(=O)N3CCCN(C(=O)CN)C[C@@H]3C)c12 : inactive

Endpoint output: Potency of CN[C@@H]1C[C@H]2O[C@@](C)([C@H]1OC)n1c3ccccc3c3c4c(c5c6ccccc6n2c5c31)C(=O)N[C@H]4O . Value?
0.469 µM (active)

Please report the recorded Potency for Nc1ccc(C(=O)Nc2cccc(-c3nc(N4CCOCC4)c4oc5ncccc5c4n3)c2)cn1 .
3.26 µM (active)

Give the measured Potency of Cc1nc(NC(=O)N2CCC[C@@H]2C(N)=O)sc1-c1ccnc(C(C)(C)C(F)(F)F)c1 .
14.8 µM (active)

What does the data say about its Potency? Entry: COc1cc([C@@H]2c3cc4c(cc3[C@H](O)[C@H]3COC(=O)[C@@H]23)OCO4)cc(OC)c1OC
0.132 µM (active)

Can you look up the measured Potency of NC(=O)Nc1cc(-c2ccc(CN3CCOCC3)cc2)sc1C(N)=O for me?
5.26 µM (active)

---

- System: Zika virus NS2B-NS3 protease
- runDescription: Primary screen GU AMC qHTS for Zika virus inhibitors (AID 1347154); note: nearly all actives have a fitted effect of over 70% in size
- statedConditions: Zika NS2B-NS3 unlinked protease, AMC fluorogenic substrate; series mostly up to 54.1 µM
Inconclusive results are not listed. Activity calls are given as the source filed them. The call rests on the fitted dose curve; in most records, active means well fitted inhibition curve with a large enough effect; inconclusive means small, poorly fitted or top-dose-only effect; inactive means flat fitted curve, though single readings scatter.
Reply using exactly one outcome from active, inactive

1) O=c1c(O)c(-c2ccc(O)c(O)c2)oc2cc(O)ccc12 : active
2) Cc1onc(-c2ccccc2)c1C(=O)N[C@@H]1C(=O)N2[C@@H](C(=O)O)C(C)(C)S[C@@H]12 : inactive

I would be grateful if you could indicate the recorded call for COc1ccc(C=Cc2cc(OC)c(OC)c(OC)c2)cc1NC(=O)[C@H](N)CO .
inactive

Hello, I am checking results. What call was entered for Cc1cncc2cccc(S(=O)(=O)N3CCCN(C(=O)CN)C[C@@H]3C)c12 ?
inactive

What did this assay record as the result for C#C[C@]1(O)CC[C@@H]2[C@@H]3CCC4=CC(=O)CC[C@@H]4[C@H]3CC[C@@]21CC ?
inactive

Answer briefly: the call reported for CC(C)N1[N]C(=C2C=c3cc(O)ccc3=N2)c2c(N)ncnc21 in this assay.
inactive

Dear all, I need the recorded test outcome for NC[C@H]1O[C@H](O[C@H]2[C@@H](O)[C@@H](O[C@H]3O[C@H](CO)[C@@H](O)[C@H](N)[C@@H]3O)[C@H](N)C[C@@H]2N)[C@H](N)C[C@H]1O , thank you.
inactive

Can you look up the reported call for CCC[C@H]1C[C@H](C(=O)N[C@@H]([C@@H]2O[C@@H](SC)[C@@H](O)[C@@H](O)[C@@H]2O)[C@H](C)Cl)N(C)C1 for me?
inactive
